# Tested on: HOP-18 NSCLC
# METHOD: NCI tumour cell line growth inhibition, 48 h
Recorded TGI for the following compounds
ENDPOINT: TGI

INSERT INTO measurements (compound, test_result) VALUES
  ('CCCCCCCC/C=C\CCCCCCCC(=O)NCCN(CCN)C(=O)CCCCCCC/C=C\CCCCCCCC', '> 100 µM'),
  ('CC(C)(C)C(=O)C1CC(=O)c2ccccc2C1=O (configuration not stated)', '> 100 µM'),
  ('O=C1C(=O)C(Br)(Br)C(Br)=C1Br', '29.8 µM'),
  ('Nc1ccn(C2CC(CO)C(O)C2O)c(=O)n1 (configuration not stated)', '> 57.7 µM'),
  ('CCCCCCCCCCCCCCCCOCC(COP(=O)([O-])OCC[N+](C)(C)C)OCCCCCCCCCCCCCCCC (configuration not stated)', '> 100 µM'),
  ('O=c1cnn2c(n1)sc1ccc3ccccc3c12', '> 100 µM'),
  ('CS(=O)(=O)Nc1ccc(Nc2c3ccccc3nc3ccccc23)cc1', '15 µM'),
  ('CC(C)(C)c1ccc(C(O)c2ccc(C(C)(C)C)cc2)cc1', '31.2 µM'),
  ('Cc1ccccc1CN1CC=c2ccccc2=N1', '> 100 µM'),
  ('CCOC(=O)/C(=C/c1ccc(C#N)cc1)N(CC)CC', '> 100 µM'),
  ('O=C(COc1ccccc1)NS(=O)(=O)c1ccccc1', '> 100 µM'),
  ('Cc1cc(Cl)cc2c1NC(=O)C2(O)C(C)C(=O)c1ccc(Cl)cc1 (configuration not stated)', '> 100 µM'),
  ('Cc1cc(O)cc2c1O[C@@]1(C)CCC3[C@@]4(C)CC[C@H](O)C(C)(C)C4CC[C@@]3(C)[C@H]1C2 (some centres not stated)', '27.8 µM'),
  ('CC#C[I+]c1ccccc1', '34.4 µM'),
  ('N#Cc1cc([N+](=O)[O-])ccc1NC(=O)C(=O)C(C(=O)/C=C/c1ccccc1)C1OC(=O)c2ccccc21 (configuration not stated)', '> 100 µM'),
  ('N#CCCN(c1ccc(-c2nnc(NC(=O)CNNC(=O)CC(=O)Nc3ccccc3)s2)cc1)S(=O)(=O)c1ccccc1', '> 100 µM'),
  ('CC1=C(C(=O)NCc2ccccc2)C(c2ccccc2[N+](=O)[O-])C(C(=O)NCc2ccccc2)=C(C)N1', '35.1 µM');

* * *

# Test system: OVCAR-4 ovarian
# METHOD: NCI tumour cell line growth inhibition, 48 h
ENDPOINT: TGI (µM)

INSERT INTO assay_data (compound, assayed_target, endpoint, result_operator, test_result) VALUES
  ('CC1OC(OCC2COC(O)(Oc3c(-c4ccc(O)c(O)c4)oc4cc(O)cc(O)c4c3=O)C(O)C2O)C(O)C(O)C1O (centres undefined)', 'OVCAR-4 ovarian', 'TGI', '>', 100),
  ('Cc1cc(C)c2c(=O)n(CN3CCC(O)(c4ccccc4)CC3)sc2n1', 'OVCAR-4 ovarian', 'TGI', '=', 81.4),
  ('N.N.NCCCCN.O=C([O-])C1(C(=O)[O-])CCC1.O=C([O-])C1(C(=O)[O-])CCC1.[Pt+4].[Pt+4]', 'OVCAR-4 ovarian', 'TGI', '>', 100),
  ('COc1ccc(/C(C)=N/OC(=O)c2c(-c3ccccc3Cl)noc2C)cc1CN1CCOCC1', 'OVCAR-4 ovarian', 'TGI', '>', 100),
  ('COc1cc(-n2cc(-c3ccc(Cl)cc3)[nH]c2=O)cc(OC)c1OC', 'OVCAR-4 ovarian', 'TGI', '=', 62.9),
  ('O=c1oc2ccc3ccccc3c2cc1-c1nc2ccccc2o1', 'OVCAR-4 ovarian', 'TGI', '=', 90.4),
  ('O=C(Nc1nc2ncn(CC(COc3ccccc3)OC(=O)c3ccccc3)c2c(=O)[nH]1)c1ccccc1 (centres undefined)', 'OVCAR-4 ovarian', 'TGI', '>', 100),
  ('CC1=C(C(=O)Nc2ccc(Cl)c(Cl)c2)C(c2ccco2)C(C(=O)Nc2ccc(Cl)c(Cl)c2)=C(C)N1', 'OVCAR-4 ovarian', 'TGI', '=', 24.6),
  ('CCCCn1c2c(n(CCCC)c1=S)-c1c(n(CCCC)c(=S)n1CCCC)SSSS2', 'OVCAR-4 ovarian', 'TGI', '=', 9.6);

src = PubChem BioAssay (NCI)
